Molecular target: Human immunodeficiency virus type 1 reverse transcriptase (Human immunodeficiency virus 1)
Under this convention, 1 denotes IC50 strictly below 900 nM and -1 denotes IC50 at or above 900 nM.

# Structure Smiles String, Group
data = [
    ("Cc1cc(C#N)cc(C)c1Oc1ccnc(S(=O)(=O)CC(=O)Nc2ccc(Br)cc2)n1", 1),
    ("Cc1ccc(NC(=O)CS(=O)(=O)c2nccc(Oc3c(C)cc(C#N)cc3C)n2)cc1C", -1),
    ("Cc1cc(C#N)cc(C)c1Oc1ccnc(S(=O)(=O)CC(=O)Nc2ccccc2F)n1", -1),
]

Prompt line: Is IC50 strictly under 900 nM for the entry Cc1cc(C#N)cc(C)c1Oc1ccnc(S(=O)(=O)CC(=O)Nc2ccc(F)cc2)n1 ?
Response line: -1

###

Tested on: Human immunodeficiency virus 1
Assay: Antiviral activity against HIV1 expressing reverse transcriptase L100I mutant
Type: functional, organism-based
Measured Property: pEC50
The meaning of pEC50 here: minus log10 of the concentration in molar units.

# Molecule, pEC50
rows = [
    ("Cc1cc(C#N)cc(C)c1Oc1ccnc(S(=O)(=O)CC(=O)Nc2ccc(F)cc2)n1", 6.13),
    ("Cc1cc(C#N)cc(C)c1Oc1ccnc(S(=O)(=O)CC(=O)Nc2ccc(Br)cc2)n1", 6.74),
    ("Cc1cc(C#N)cc(C)c1Oc1ccnc(S(=O)(=O)CC(=O)Nc2ccc([N+](=O)[O-])cc2)n1", 6.95),
    ("Cc1cc(C#N)cc(C)c1Oc1ccnc(S(=O)(=O)CC(=O)Nc2ccc(C#N)cc2)n1", 7.17),
    ("Cc1ccnc2c1NC(=O)c1cccnc1N2C1CC1 [NEVIRAPINE]", 5.46),
]

Prompt line: Which pEC50 value is on record for Cc1cc(C#N)cc(C)c1Oc1ccnc(S(=O)(=O)CC(=O)Nc2ccc(Cl)cc2)n1 ?
Response line: 6.72

Prompt line: Any idea what its pEC50 is? The molecule is Cc1cc(C#N)cc(C)c1Oc1nc(Nc2ccc(C#N)cc2)nc(N)c1Br [ETRAVIRINE]
Response line: 7.75

Prompt line: Can you look up the measured pEC50 of O=C1Nc2ccc(Cl)cc2[C@@](C#CC2CC2)(C(F)(F)F)O1 [EFAVIRENZ] for me?
Response line: 7.02

Prompt line: If you can, please state the reported pEC50 value of Cc1cc(C#N)cc(C)c1Oc1ccnc(S(=O)(=O)CC(=O)Nc2ccc(Cl)c(Cl)c2)n1 .
Response line: 6.33

###

Some compounds, each annotated with its measured EC50.
Tested on: Human immunodeficiency virus 1
Experiment: Antiviral activity against HIV1 expressing reverse transcriptase E138K mutant
Type: functional, organism-based
Reply with just the number (in nM).

# Compound, Unit Annotation, EC50
data = [
    ("Cc1cc(C#N)cc(C)c1Oc1ccnc(S(=O)(=O)CC(=O)Nc2ccc(C#N)cc2)n1", "nM", 16.5),
    ("Cc1cc(C#N)cc(C)c1Oc1ccnc(S(=O)(=O)CC(=O)Nc2ccc(Cl)cc2)n1", "nM", 41.6),
    ("Cc1cc(C#N)cc(C)c1Oc1ccnc(S(=O)(=O)CC(=O)Nc2ccc(Cl)c(Cl)c2)n1", "nM", 244),
    ("Cc1cc(C#N)cc(C)c1Oc1ccnc(S(=O)(=O)CC(=O)Nc2ccc(F)cc2)n1", "nM", 227),
]

Prompt line: Item under review: Cc1cc(C#N)cc(C)c1Oc1ccnc(S(=O)(=O)CC(=O)Nc2ccc(Br)cc2)n1 . Reported EC50?
Response line: 39.9

Prompt line: Item under review: Cc1ccnc2c1NC(=O)c1cccnc1N2C1CC1 [NEVIRAPINE] . Reported EC50?
Response line: 289

Prompt line: Item under review: Cc1cc(C#N)cc(C)c1Oc1nc(Nc2ccc(C#N)cc2)nc(N)c1Br [ETRAVIRINE] . Reported EC50?
Response line: 16.8

Prompt line: Which EC50 is reported for this compound? Cc1cc(C#N)cc(C)c1Oc1ccnc(S(=O)(=O)CC(=O)Nc2ccc([N+](=O)[O-])cc2)n1
Response line: 25.7

Prompt line: Given the entry O=C1Nc2ccc(Cl)cc2[C@@](C#CC2CC2)(C(F)(F)F)O1 [EFAVIRENZ] , report its measured EC50.
Response line: 5.4

###

Target: Human immunodeficiency virus type 1 reverse transcriptase (Human immunodeficiency virus 1, UniProt Q72547)
compounds and their reported log10 IC50
A difference of one corresponds to tenfold IC50; all values are log10 with IC50 in µM.

# Structure Smiles String, Measured Number
measured = [
    ("Cc1cc(C#N)cc(C)c1Oc1ccnc(S(=O)(=O)CC(=O)Nc2ccc(Cl)cc2)n1", -0.14),
    ("Cc1cc(C#N)cc(C)c1Oc1ccnc(S(=O)(=O)CC(=O)Nc2cccc([N+](=O)[O-])c2)n1", 0.15),
    ("Cc1cc(C#N)cc(C)c1Oc1ccnc(S(=O)(=O)CC(=O)Nc2ccc(Cl)c(Cl)c2)n1", -0.75),
    ("Cc1cc(C#N)cc(C)c1Oc1ccnc(S(=O)(=O)CC(=O)Nc2ccc([N+](=O)[O-])cc2)n1", -1.28),
]

Prompt line: // returns reported log10 IC50 for input Cc1cc(C#N)cc(C)c1Oc1ccnc(S(=O)(=O)CC(=O)Nc2ccc(C#N)cc2)n1
Response line: -1.19

###

Collected selectivity ratio values appear next to each entry.
Test: Selectivity index, ratio of CC50 for human MT4 cells to EC50 for HIV1 3B infected in human MT4 cells
Assay type: toxicity, cell-based
Settings: read-out: Ratio CC50/EC50
I'd appreciate a reply containing only the number, no unit.

# Structure Smiles String, Measured Number
rows = [
    ("Cc1ccc(NC(=O)CS(=O)(=O)c2nccc(Oc3c(C)cc(C#N)cc3C)n2)cc1C", 179),
    ("Cc1cc(C#N)cc(C)c1Oc1ccnc(S(=O)(=O)CC(=O)Nc2cccc(Cl)c2)n1", 831),
    ("Cc1cc(C#N)cc(C)c1Oc1ccnc(S(=O)(=O)CC(=O)Nc2ccccc2)n1", 1120),
    ("Cc1cc(C#N)cc(C)c1Oc1ccnc(S(=O)(=O)CC(=O)Nc2ccc(F)cc2)n1", 2930),
    ("Cc1cc(C#N)cc(C)c1Oc1ccnc(S(=O)(=O)CC(=O)Nc2cccc([N+](=O)[O-])c2)n1", 501),
    ("COc1ccc(NC(=O)CS(=O)(=O)c2nccc(Oc3c(C)cc(C#N)cc3C)n2)cc1", 136),
]

Prompt line: Reported selectivity ratio, compound Cc1cc(C#N)cc(C)c1Oc1ccnc(S(=O)(=O)CC(=O)Nc2cccc(F)c2)n1 : ____
Response line: 1680

###

Tested on: Human immunodeficiency virus 1
Assay: Antiviral activity against HIV1 3B expressing reverse transcriptase K103N + Y181C mutant infected in human MT4 cells assessed as reduction in virus-induced cytopathogenicity incubated for 4 days by MTT method
Assay type: functional, organism-based
Conditions: Human immunodeficiency virus 1, 3B, MT4, 96 h
Measured Property: pEC50
A value of pEC50 is the negative decimal logarithm of a concentration given in moles per litre.

Some molecules with recorded pEC50:
# Structure Smiles String, pEC50
records = [
    ("Cc1cc(C#N)cc(C)c1Oc1ccnc(S(=O)(=O)CC(=O)Nc2ccc([N+](=O)[O-])cc2)n1", 6.41),
    ("Cc1cc(C#N)cc(C)c1Oc1ccnc(S(=O)(=O)CC(=O)Nc2ccc(F)cc2)n1", 5.36),
]

Prompt line: Fill in the blank: the reported pEC50 of Cc1cc(C#N)cc(C)c1Oc1ccnc(S(=O)(=O)CC(=O)Nc2ccc(C#N)cc2)n1 is ____.
Response line: 6.37

Prompt line: Entry Cc1cc(C#N)cc(C)c1Oc1ccnc(S(=O)(=O)CC(=O)Nc2cccc(Cl)c2)n1 : reported pEC50 = ?
Response line: 5.14

###

Tested on: Human immunodeficiency virus 1
Assay: Antiviral activity against HIV1 3B expressing reverse transcriptase K103N + Y181C mutant infected in human MT4 cells assessed as reduction in virus-induced cytopathogenicity incubated for 4 days by MTT method
Type: functional, organism-based
Conditions: Human immunodeficiency virus 1, 3B, MT4, 96 h
Quick list: pEC50 per entry.
The quantity pEC50 is defined as the negative base-10 logarithm of the molar concentration.

# Structure Smiles String, Measured Number
records = [
    ("Cc1cc(C#N)cc(C)c1Oc1ccnc(S(=O)(=O)CC(=O)Nc2ccc(Br)cc2)n1", 6.02),
]

Prompt line: Record request: pEC50 value, item Cc1cc(C#N)cc(C)c1Oc1ccnc(S(=O)(=O)CC(=O)Nc2ccc(Cl)cc2)n1
Response line: 5.98

###

System: Human immunodeficiency virus 1
Experiment: Antiviral activity against HIV1 expressing reverse transcriptase F227L + V106A mutant
Format: functional, organism-based
Criterion: EC50 strictly less than 500 nM. Met: YES. Not met: NO.

For orientation, consider the following solved cases.
# Structure Smiles String, Study Target, Group
data = [
    ("Cc1cc(C#N)cc(C)c1Oc1ccnc(S(=O)(=O)CC(=O)Nc2ccc(Cl)c(Cl)c2)n1", "Human immunodeficiency virus 1", "NO"),
    ("Cc1cc(C#N)cc(C)c1Oc1ccnc(S(=O)(=O)CC(=O)Nc2ccc(Br)cc2)n1", "Human immunodeficiency virus 1", "YES"),
    ("O=C1Nc2ccc(Cl)cc2[C@@](C#CC2CC2)(C(F)(F)F)O1", "Human immunodeficiency virus 1", "YES"),
    ("Cc1cc(C#N)cc(C)c1Oc1ccnc(S(=O)(=O)CC(=O)Nc2ccc(Cl)cc2)n1", "Human immunodeficiency virus 1", "NO"),
    ("Cc1cc(C#N)cc(C)c1Oc1ccnc(S(=O)(=O)CC(=O)Nc2ccc([N+](=O)[O-])cc2)n1", "Human immunodeficiency virus 1", "YES"),
]

As a next step, examine the compound that follows.
Prompt line: Criterion: EC50 strictly below 500 nM. Is it met by Cc1cc(C#N)cc(C)c1Oc1ccnc(S(=O)(=O)CC(=O)Nc2ccc(C#N)cc2)n1 ?
Response line: YES
